Assay: Lipophilicity (LogD7.4), shake-flask method in n-octanol/PBS
Assay type: physicochemical
Conditions: pH 7.4, n-octanol-PBS, RT, n = 3
READOUT TYPE: logD

| COMPOUND | logD |
| --- | --- |
| Nc1nc(-c2ccco2)c2cnn(Cc3ccc([18F])cc3)c2n1 [[^18F]PPY1] | 1.59 |

Problem: Need logD, item Nc1nc(-c2ccco2)c2cnn(Cc3ccccc3[18F])c2n1 [[^18F]PPY2]
Solution: 2.01

###

Target: human A1R (Homo sapiens)
Sequence (P30542 1-326): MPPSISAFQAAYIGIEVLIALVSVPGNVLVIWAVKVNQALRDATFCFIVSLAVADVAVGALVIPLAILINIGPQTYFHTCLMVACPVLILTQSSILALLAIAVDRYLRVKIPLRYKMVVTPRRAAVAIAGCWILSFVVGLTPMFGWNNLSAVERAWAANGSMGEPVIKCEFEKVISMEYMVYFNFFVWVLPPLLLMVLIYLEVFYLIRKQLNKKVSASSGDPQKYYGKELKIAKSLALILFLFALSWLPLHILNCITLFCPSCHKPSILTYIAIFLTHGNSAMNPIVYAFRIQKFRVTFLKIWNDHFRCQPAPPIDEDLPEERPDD
Assay: In vitro radioligand binding assay with [3H]DPCPX on membranes of CHO-K1 cells stably transfected with human A1R
Below: a set of entries, each annotated with reported pKi.
Scale: negative log10 of molar concentration, which is what pKi denotes.

Guide cases for pKi, answers given:
| SMILES STRUCTURE | pKi |
| --- | --- |
| Nc1nc(-c2ccco2)c2cnn(Cc3cccc(CCF)c3)c2n1 | 7.16 |
| N#Cc1cccc(F)c1Cn1ncc2c(-c3ccco3)nc(N)nc21 | 6.33 |
| Nc1nc(-c2ccco2)c2cnn(Cc3c(F)cccc3Br)c2n1 | 6.79 |
| Nc1nc(-c2ccco2)c2cnn(C(=O)c3ccccc3F)c2n1 | 5.81 |
| Nc1nc(-c2ccco2)c2cnn(Cc3cccc(OCCF)c3)c2n1 | 6.67 |

Problem: Need pKi, item "Nc1nc(-c2ccco2)c2cnn(Cc3ccnc(F)c3)c2n1"
Solution: 5.54

Problem: Need pKi, item "Nc1nc(-c2ccco2)c2cnn(CCc3ccccc3F)c2n1"
Solution: 6.61

Problem: Need pKi, item "Nc1nc(-c2ccco2)c2cnn(Cc3ccc(Br)cc3F)c2n1"
Solution: 7.50

###

Molecular target: human A1R (Homo sapiens)
Sequence (P30542 1-326): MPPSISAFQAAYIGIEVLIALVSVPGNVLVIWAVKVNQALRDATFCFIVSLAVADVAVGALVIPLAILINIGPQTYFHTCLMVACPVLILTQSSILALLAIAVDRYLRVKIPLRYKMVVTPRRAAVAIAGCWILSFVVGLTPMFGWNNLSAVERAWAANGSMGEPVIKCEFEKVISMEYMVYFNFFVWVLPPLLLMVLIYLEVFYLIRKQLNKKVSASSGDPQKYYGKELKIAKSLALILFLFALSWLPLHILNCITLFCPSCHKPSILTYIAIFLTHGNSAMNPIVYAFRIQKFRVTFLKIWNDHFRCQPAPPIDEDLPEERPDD
Test: In vitro radioligand binding assay with [3H]DPCPX on membranes of CHO-K1 cells stably transfected with human A1R
Below: a set of entries, each annotated with reported Ki.
Number only, in nM; omit the unit.

| COMPOUND | Ki, nM |
| --- | --- |
| N#Cc1cc(F)cc(Cn2ncc3c(-c4ccco4)nc(N)nc32)c1 [PPY14] | 954 |
| Nc1nc(-c2ccco2)c2cnn(Cc3cccc(F)c3)c2n1 [PPY3] | 132 |
| Nc1nc(-c2ccco2)c2cnn(Cc3cccnc3F)c2n1 [PPY4] | 822 |
| Nc1nc(-c2ccco2)c2cnn(Cc3cc(F)cc(Br)c3)c2n1 [PPY10] | 160 |

Problem: Need Ki, item Nc1nc(-c2ccco2)c2cnn(Cc3ccc(F)cc3)c2n1 [PPY1]
Solution: 220
